- System: human Cav3.1 Cav3.2 or Cav3.3 channel
- assayExplanation: In vitro assay T channel (FLIPR calcium fluorescence)
- Type: cell-based
- assaySetup: HEK293 cells expressing human Cav3.1, Cav3.2 or Cav3.3; 10 mM Ca2+-induced fluo-4 fluorescence; determined up to 10 μM; read-out: T channel antagonistic activity IC50
Task for the reader: assign each of the following molecules its reported IC50.
Numbers only, in µM.

{"columns": ["molecule", "uom", "val"],
 "data": [
  ["CC(C)C(=O)O[C@@]1(CCN(C)CCCc2nc3c(OC(F)(F)F)cccc3[nH]2)C[C@H]2CC[C@@H]1C=C2c1ccccc1 (relative stereo) [Example 68A]", "µM", 0.839],
  ["CC(C)C(=O)O[C@@]1(CCN(C)CCCc2nc3ccccc3[nH]2)C[C@H]2CC[C@@H]1C=C2c1ccccc1 (relative stereo)", "µM", 4.94],
  ["CN(CCCc1nc2ccccc2[nH]1)CC[C@]1(O)C[C@H]2CC[C@@H]1C=C2c1cccs1 (relative stereo)", "µM", 3.47],
  ["CCOc1ccc(CCCN(C)CC[C@]2(OC(=O)C(C)C)C[C@H]3CC[C@@H]2C=C3c2ccccc2)cc1OCC (relative stereo) [Example 40A]", "µM", 8.93],
  ["CO[C@@]1(c2ccccc2)C[C@H]2CC[C@@H]1C[C@]2(O)CCN(C)CCCc1nc2ccccc2[nH]1 (relative stereo)", "µM", 9.1]
]}

Go through the list and state IC50 for each entry.
1. CCCC1=C(C)[C@H]2CC[C@@H]1C[C@]2(CCN(C)CCCN(C)C(=O)C(C)(COC)COC)OC(=O)C(C)C (relative stereo) [Example 52A]
2. COc1ccc(Cl)c2[nH]c(CCCN(C)CC[C@]3(OC(=O)C(C)C)C[C@H]4CC[C@@H]3C=C4c3ccccc3)nc12 (relative stereo) [Example 58A]
3. CC(C)C(=O)Oc1cccc2nc(CCCN(C)CC[C@]3(OC(=O)C(C)C)C[C@H]4CC[C@@H]3C=C4c3ccccc3)[nH]c12 (relative stereo) [Example 34A]
4. CC1=C(c2ccccc2)[C@H]2CC[C@@H]1C[C@]2(O)CCN(C)CCCc1nc2ccccc2[nH]1 (relative stereo) [Example 17B]
5. CN(CCCc1nc2ccccc2[nH]1)CC[C@]1(O)C[C@H]2CC[C@@H]1C[C@]21OCc2ccccc21 (relative stereo)

1: 4.21; 2: 0.762; 3: 4.33; 4: 0.751; 5: 3.71
